Taken from PubChem BioAssay (NCATS).

test: Cytotoxicity counterscreen for inhibitors of SARS-CoV-2 cell entry (AID 1645845); conditions: cell viability (SARS-CoV-2 entry assay cells); series mostly up to 57.1 µM; note: nearly all actives have a fitted effect of over 50% in size
Results filed as inconclusive are left out. Active and inactive are the calls of the source. Calls come from the whole dose curve.
Outcome codes: True = active, False = inactive

- C[C@]12CC[C@H]3[C@@H](CCC4=CC(=O)CC[C@@]43C)[C@H]1CC[C@H]2OC(=O)CCC1CCCC1: False
- [O-][n+]1cccc(/C(Cl)=N/OC[C@@H](O)CN2CCCCC2)c1: False
- COc1cc2nc(-c3ccc(N4CCN(C)CC4)cc3)nc(NCCN3CCOCC3)c2cc1OC: False
- COc1cccc2c1CCCC2CCCN1CCN(C2CCCCC2)CC1 (stereo not given): False
- CC(C)(C)c1cnc(CSc2cnc(NC(=O)C3CCNCC3)s2)o1: False
- COc1c(N2CCNC(C)C2)c(F)cc2c(=O)c(C(=O)O)cn(C3CC3)c12 (stereo not given): False
- Clc1ccc(C(c2ccc(Cl)cc2)n2cc[n+](CC(OCc3ccc(Cl)cc3Cl)c3ccc(Cl)cc3Cl)c2)cc1 (stereo not given): True
- CC[N+](C)(CC)CCOC(=O)C(O)(c1ccccc1)C1CCCCC1 (stereo not given): False
- O=C(NCCCNc1nc(Nc2cccc(NC(=O)N3CCCC3)c2)ncc1I)c1cccs1: False
- CCCCCCCCCCCCCC(=O)N[C@H](CO)[C@H](O)c1ccc([N+](=O)[O-])cc1: False

====

assay: qHTS Assay for Identification of Small Molecule Antagonists for NFkB Signaling Pathway. (AID 624479); settings: NFkB pathway reporter cell assay, antagonist mode; series mostly up to 38.3 µM;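 note: pathway stimulated with TNF alpha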
Activity calls are given as the source filed them. The call rests on the fitted dose curve.
Outcome codes: active, inactive

- O=C(Oc1ccc([N+](=O)[O-])cc1)N1CCC(C(O)(c2ccc3c(c2)OCO3)c2ccc3c(c2)OCO3)CC1: inactive
- Cc1ccccc1-n1c(Cn2cnc3c(N)ncnc32)nc2cccc(C)c2c1=O: inactive
- CCOc1ccc(Nc2nc(-c3c(C)nc4ccccn34)cs2)cc1: active
- Cc1nc2cnc3ccc(C#Cc4cccnc4)cc3c2n1-c1ccc(C(C)(C)C#N)cc1: active
- CC1CC(C)C(=O)C(C(O)CC2CC(=O)NC(=O)C2)C1 (configuration not stated): active
- c1cc(-c2cnn3cc(-c4ccc(OCCN5CCCCC5)cc4)cnc23)ccn1: active
- C1=CCOCc2cc(ccc2OCCN2CCCC2)Nc2nccc(n2)-c2cccc(c2)OCC1: active

====

assay: qHTS of pediatric cancer cell lines to identify multiple opportunities for drug repurposing: Primary screen for SK-N-SH cells (AID 1347098); settings: SK-N-SH viability, CellTiter-Glo luminescence, 48 h; series mostly up to 57 µM; note: nearly all actives have a fitted effect of over 65% in size
Results filed as inconclusive are left out. Calls of active or inactive are those of the source. Calls follow the shape of the dose curve; as a rule, active = well fitted cell-killing curve with a large enough effect; inconclusive = small, poorly fitted or top-dose-only effect; inactive = no such curve, though single readings can be large or run the other way.
Outcome codes: active, inactive

* O=c1[nH]c2ccc(Cl)cc2c(N[C@@H]2CN3CCC2CC3)c1-c1nc2ccccc2[nH]1 | active
* C[C@H]1CCCC=CC2C[C@H](O)C[C@@H]2[C@H](O)C=CC(=O)O1 (stereo not given in full) | active
* COC(=O)c1cncn1C(C)c1ccccc1 (stereo not given) | inactive
* C=CCON=C(C[C@H]1O[C@@H]2O[C@]3(C)CC[C@@H]4[C@H](C)CC[C@@H]([C@H]1C)[C@@]24OO3)[C@H]1O[C@@H]2O[C@]3(C)CC[C@H]4[C@H](C)CC[C@@H]([C@@H]1C)[C@@]24OO3 | inactive
* CCCCOC(=O)c1ccccc1C(=O)OCc1ccccc1 | inactive
* CC(C)(O)C(=O)Nc1ccc([N+](=O)[O-])c(C(F)(F)F)c1 | active
* COc1ccc(C(c2ccc(OC)cc2)C(Cl)(Cl)Cl)cc1 | active
* CCOCCOC(C)=O | inactive
* CCC(=O)OC1CCC2C3CCC4=CC(=O)CC[C@@]4(C)C3CC[C@]12C (stereo not given in full) | inactive
* O=C(Oc1ccc([N+](=O)[O-])cc1)N1CCC(C(O)(c2ccc3c(c2)OCO3)c2ccc3c(c2)OCO3)CC1 | inactive

====

assay: Cell Viability - LYMP2-001 (AID 921); conditions: LYMP2-001 lymphoblastoid cell viability; series mostly up to 92.2 µM;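 note: cells exposed to compound for 24 h at 37 °C; nearly all actives have a fitted effect of over 70% in size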
Records with an inconclusive call do not appear. The source made the active and inactive calls. Calls come from the whole dose curve; as a rule, active = well fitted cell-killing curve with a large enough effect; inconclusive = small, poorly fitted or top-dose-only effect; inactive = no such curve, though single readings can be large or run the other way.
Outcome codes: T = active, F = inactive

- OCCCBr: F
- CC(=O)[O][Hg][c]1ccccc1: T
- O=[N+]([O-])c1c(Cl)c(Cl)cc(Cl)c1Cl: F
- CC(C)(O)C(=O)Nc1ccc([N+](=O)[O-])c(C(F)(F)F)c1: F
- Nc1ccc([N+](=O)[O-])cc1: F
- O=C(O)COc1ccccc1: F
- CN(C)NC(=O)CCC(=O)O: F
- CCCCOC(=O)c1ccccc1C(=O)OCc1ccccc1: F
- O=[N+]([O-])c1c2ccccc2cc2ccccc12: F
- O=[N+]([O-])c1cc([N+](=O)[O-])c2ccccc2c1: F
- c1cc2ccc3cccc4ccc(c1)c2c34: F
- CCCCCCCCc1ccc(O)cc1: F
- C1CCC(NC2CCCCC2)CC1: F
- COC(C)(C)CCCC(C)C/C=C/C(C)=C/C(=O)OC(C)C (centres undefined): F

====

test: qHTS of pediatric cancer cell lines to identify multiple opportunities for drug repurposing: Confirmatory screen for Rh30 cells (AID 1347126); conditions: Rh30 rhabdomyosarcoma cell viability; series mostly up to 45.9 µM; note: nearly all actives have a fitted effect of over 55% in size
Results filed as inconclusive are left out. Active and inactive are the calls of the source. Calls follow the shape of the dose curve; as a rule, active = well fitted cell-killing curve with a large enough effect; inconclusive = small, poorly fitted or top-dose-only effect, or effect the other way; inactive = no such curve, though single readings can be large or run the other way.
Outcome codes: active, inactive

• O=c1[nH]c2ccc(Cl)cc2c(N[C@@H]2CN3CCC2CC3)c1-c1nc2ccccc2[nH]1 = active
• C[C@@H]1CC[C@@]2(OC1)O[C@H]1C[C@H]3[C@@H]4CC=C5C[C@@H](O[C@@H]6O[C@H](CO)[C@@H](O[C@@H]7O[C@@H](C)[C@H](O)[C@@H](O)[C@@H]7O)[C@H](O)[C@@H]6O[C@@H]6O[C@@H](C)[C@H](O)[C@@H](O)[C@@H]6O)CC[C@]5(C)[C@@H]4CC[C@]3(C)[C@@H]1[C@H]2C = active
• CC(C)N[C@@H]1CCn2c(=O)[nH]c3cccc(c32)[C@@H]1O = inactive
• COc1cc([C@@H]2c3cc4c(cc3[C@@H](O)C3COC(=O)C32)OCO4)cc(OC)c1O (some centres not stated) = inactive
• O=[N+]([O-])c1c(Cl)c(Cl)cc(Cl)c1Cl = inactive
• O=C(O)CCCOc1ccc(Cl)cc1Cl = inactive
• CS(=O)(=O)c1ccc(C(=O)C2C(=O)CCCC2=O)c([N+](=O)[O-])c1 = inactive
• CC1=C(O)C(=O)C=C2C1=CC=C1[C@@]2(C)CC[C@@]2(C)[C@@H]3C[C@](C)(C(=O)O)CC[C@]3(C)CC[C@]12C = active
• CC(C)(C)C(O)C(Oc1ccc(Cl)cc1)n1cncn1 (configuration not stated) = inactive
• CO[C@H]1CCC(O[C@H]2C[C@H]([C@]3(C)CC[C@]4(C[C@H](O)[C@@H](C)[C@@H]([C@@H](C)C=C(C)C(=O)[C@H](C)C[C@H](C)C(=O)O)O4)O3)O[C@]3(O[C@@H]([C@H]4O[C@@](O)(CO)[C@H](C)C[C@H]4C)C[C@H]3C)[C@H]2C)O[C@H]1C (some centres not stated) = inactive
• CC(C)(O)C=CC(=O)[C@](C)(O)[C@H]1[C@H](O)C[C@]2(C)[C@@H]3CC=C4[C@@H](C=C(O)C(=O)C4(C)C)[C@]3(C)C(=O)C[C@@]12C = active
• Cc1ccccc1-n1c(Cn2cnc3c(N)ncnc32)nc2cccc(C)c2c1=O = inactive
• O=C(Nc1ccncc1)C(=O)c1cn(Cc2ccc(Cl)cc2)c2ccccc12 = inactive
• O=C(O)COc1nc(Cl)c(Cl)cc1Cl = inactive
• C[C@H]1CCCC=CC2C[C@H](O)C[C@@H]2[C@H](O)C=CC(=O)O1 (some centres not stated) = active
• CCC(=O)OC1CCC2C3CCC4=CC(=O)CC[C@@]4(C)C3CC[C@]12C (some centres not stated) = inactive
• CC(=Cc1csc(C)n1)[C@@H]1C[C@H]2O[C@]2(C)CCC[C@H](C)[C@@H](O)[C@@H](C)C(=O)C(C)(C)[C@@H](O)CC(=O)O1 = inactive

====

experiment: Cell Viability - NIH 3T3 (AID 541); conditions: NIH 3T3 cell viability, qHTS; series mostly up to 92.2 µM;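 note: cells exposed to compound for 40 hours; nearly all actives have a fitted effect of over 25% in size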
Records with an inconclusive call do not appear. The source made the active and inactive calls. The call rests on the fitted dose curve; in most records, active means well fitted cell-killing curve with a large enough effect; inconclusive means small, poorly fitted or top-dose-only effect; inactive means flat fitted curve, though single readings scatter.
Outcome codes: 1 = active, 0 = inactive

* O=[N+]([O-])c1cc([N+](=O)[O-])c2ccccc2c1 | 0
* O=C(O)C(Cl)Cl | 0
* O=C(O)COc1ccccc1 | 0
* CN(C)NC(=O)CCC(=O)O | 0
* Nc1ccc(Cl)cc1 | 0
* CN(C)[C@@H]1C(=O)C(C(N)=O)=C(O)[C@@]2(O)C(=O)C3=C(O)c4c(O)cccc4[C@@](C)(O)[C@H]3[C@H](O)[C@@H]12 | 0
* C=CC(=O)NCNC(=O)C=C | 0
* C1CCC(NC2CCCCC2)CC1 | 0
* Nc1ccc(Cl)cc1N | 1
* CCCCOC(=O)c1ccccc1C(=O)OCc1ccccc1 | 0
* OCCCBr | 0
* Nc1ccc(Sc2ccc(N)cc2)cc1 | 0
* O=[N+]([O-])c1c2ccccc2cc2ccccc12 | 0
